- assay_remarks: Saturation mutagenesis of SEQ ID NO:109: dicamba decarboxylation activity of point mutants (CO2 released), fold of backbone (Tables 7, 8, Megatable 1)
- condition_info: decarboxylation activity (CO2 released) of point mutant vs unmutated backbone protein; backbone SEQ ID NO: 109
quantity_name: Fold Activity (fold)
Could you give me the number in fold? Just the number is fine.

Query: Sample 148 (protein, Dicamba decarboxylase variant) MAQGKEALEEHFAIPETLNDSAGFVPGDYWKELQHRLLDIQDTRLKLMDAHQIETMILSLAAVGVQAIPDRRKAIEIARRANDMLAEECAKRPDRFLAFAALPLQDVDAASEELQRTVNTLGFVGALVNGFSVEGDGQTPLYYDLPQYRPFWGEVEKLDVPFYLHPRNPLPQDSRIYDGHPWLLGPTWAFAQETAVHALRLMASGLFDEHPRLNIILGHLGEGLPYMMYRIDHRIAWVKLPPRYPAKRRFMDYFNENFHITTSGNFRTQTLIDAILEIGADRILFSTDWPFENIDHAAAWFNATSIAEADRVKIGRTNARRLFKLDGA — what was its Fold Activity?
Response: 1.5

Query: Sample 84 (protein, listed as Mycobacterium rhodesiae) MASLIALEEHYAWDPASEGNVVATWLRANNGVAYDRLYDRGPLRIEQMDAAGIDFQILSLFDPGVQDEVDAVRAVDLARRANDDLAESVRANPSRFGGFATLATQQPDAAVAEFDRAVTELGLVGGLINGHCQGRYLDDPAYEALFSRAEALGAPIYLHPTTPHPAVMDAWFAPYVGDGLHLASWGFAAETGTHVLRLIYSGLFDKFPRLQMIIGHLGEMLPFAAYRIDRYYGLGGGGTGHTLQHLPSDYLRNNFHVTTSGNFCSPALDCTLDVMGADRVMFSVDYPMDDNQTGADFLASYPMDDTNRRKVASENALRLFGDRIPAALRN — what was its Fold Activity?
Response: 1

Query: Sample 120 (protein, Dicamba decarboxylase variant clone: DC.12.002) MAIIDCHGHYTTTPKGVETYRNAQKAAVAKDPSFKYEKGQVVVSDDEIRESIENNQLKMQRERGTDLTIFSPRSTAGGHHIGNEYTSQFWTEHQNDLIRRVCDLFPKNFAPVAQLPQSPGVDPAKSVPEIVRTVEQMGFIGINLNPDPSGGYWKDTSLADRAFYPIYEKMVEYDIPAMIHPRNACNDCFHTTGSHALGADTTGFQQLIMSDVFKDFPSLKIIIPHGGGAVPYHWGRFRGLMQDQGYAPLEESALKNIYFDTCVYHQRGIDLLLDIVPTQNILFASEMIGAVRGIDAETGHNFDDTKRYIDNNTALNAEEKAMIFEGNARRVFSRLKTD — what was its Fold Activity?
Response: 1.3

Query: Sample 82 (protein, listed as Rhodopseudomonas palustris) MAQNETPVIAIEEHYWDPEMVARFPAGENASPFSTLLTELGDVRLRAMDEAGIDVQVLSHGAPAAQKLPPDVAPELTRRVNDRLAEACARFPNRFAAFAALPTPAPEAAARELERCVRDLGFKGAMIHGLTNGLFIDDKRFWPIFEVAEKLDVPIYLHPSVPHADVTRYYYDDYAREFPTVIRPAWGFTVETATQAIRLILSRALESYPRLQIILGHLGETLPFLLWRINQALARPGQTPLDFRKQFCDHFHVTTSGFFSTPALICTMLELGIDRIMFAVDYPYVVNRDGTDWVQQLQISPDDKRKLVGGNARRLLKL — what was its Fold Activity?
Response: 0.9

Query: Sample 122 (protein, Dicamba decarboxylase variant clone: DC.12.103) MAIIDCHGHYTTTPKGVEDYRNAQKAAVAKDPSFKGEKGQVVVSDDEIRESIENNQLKMQRERGTDLTIFSPRSTAGGHHIGNEYTSQFWTEHQNDLIRRVCDLFPKNFAPVAQLPQSPGVDPAKSVPEIVRTVEQMGFIGINLNPDPSGGYWKDTSLADRAFYPIYEKMVEYDIPAMIHPRNACNDCFHTTGSHALGADTTGFQQLIMSDVFKDFPSLKIIIPHGGGAVPYHWGRFRGLMQDQGYAPLEESALKNIYFDTCVYHQRGIDLLLDIVPTQNILFASDMIGAVRGIDPETGHNFDDTKRYIDNNTALNAEEKAMIFEGNARRVFSRLKTD — what was its Fold Activity?
Response: 0.9

Query: Sample 154 (protein, Dicamba decarboxylase variant) MAQGKVALEEHFAIPETLQDSAGFVPGDYWKELQHRLLDIQDTRLKLMDAHGIETMILSLAAPAVQAIPDRHKAIEIARRANDFLAEECAKRPDRFLAFAALPLQDPDAATEELQRTVNDLGFVGALVNGFSQEGDGQTPLYYDLPQYRPFWGEVEKLDVPFYLHPRNPLPQDSRIYDGHPWLLGPTWAFAQETAVHALRLMASGLFDEHPRLNIILGHMGEGLPYMMYRIDHRIAWVHEPPRYPAKRRFMDYFNENFHITTSGNFRTQTLIDAILEIGADRILFSTDWPFENIDHAADWFNATSIAEADRVKIGRTNARRLFKLDGD — what was its Fold Activity?
Response: 1.3

Query: Sample 48 (protein, listed as Amycolatopsis mediterranei) MASMKLYGLEEHFVTADVIEAWRRRDPGLAEPMMKWAVASDITPALLDVDGGRIAAMDDAGIDTTVLSLTTPGLQNLDAAEAVALQAPTNDLIAAAVRRHPGRFQGFATLATSAPAAAADELRRAVTELGLNGALVNANSRGRALDAPGFWDIYEAAEDLRAPVYLHPGVPVPAVTEAYYRGFGEPVNSMLATGAFGWHYDAGLTILRMIVAGVFDRFPGLQVILGHWGEVVLFYLDRVAAMDKLTALRRPIAEYFRSNIFITPGGISSHKYLRWSLETVGVERIMYASDYPFNTERAGSARRFLDTAPVDEAGRERIAYRNWEELIAGIRR — what was its Fold Activity?
Response: 1.5

src = patent US20160040149A1
